Reported slope values for the following compounds.
Tested target: Alpha-2C adrenergic receptor (Homo sapiens)
Procedure details: compounds altering alpha2C-coupled GIRK flux – cell-based, HEK293 alpha2C/GIRK1/2, thallium flux, primary screen (AID 624);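 further: slope of fluorescence ratio to pre-addition baseline per second over 15 to 24 s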
Setup conditions: thallium flux BTC fluorescence, at 10 µM, actives lie on both sides
API note: the answer field is a bare number with no unit suffix.

compound=O=C(NCCCN1CCN(Cc2ccccc2)CC1)C1CCN(c2nnc(-n3cccc3)s2)CC1 observed=0.00457
compound="CC1(C)CC2CC(C)(CN2S(=O)(=O)c2ccc(N)cc2)C1 (stereo not given)" observed=0.00585
compound=O=C(CCC(=O)OCC(=O)c1ccccc1)NC1CCCCC1 observed=0.00794
compound=CCn1c(SCC(=O)Nc2ccccc2N2CCCCC2)nc2c1c(=O)n(C)c(=O)n2C observed=0.00404
compound=CC(C)COc1ccc(C(=O)OCCN2CCOCC2)cc1 observed=0.00666

Find slope for O=C1NC(c2ccco2)Nc2ccccc21 (stereo not given) on Alpha-2C adrenergic receptor (Homo sapiens) and write it down.
0.00562

Give the observed slope of COCCNC(=O)C(c1ccc(C)o1)N(C(=O)c1snc(C(N)=O)c1N)c1ccc(C)cc1 (stereo not given) for Alpha-2C adrenergic receptor (Homo sapiens).
0.00521

Tell me its slope on Alpha-2C adrenergic receptor (Homo sapiens): O=S(=O)(Nc1cccnc1)c1ccc2c(c1)OCCO2
0.00465

# assay system Alpha-2C adrenergic receptor (Homo sapiens): give slope of COc1ccc(S(=O)(=O)NCC(c2cccnc2)N2CCN(C)CC2)cc1C (stereo not given)
0.00609

Report slope under test system Alpha-2C adrenergic receptor (Homo sapiens) for COc1cc(NC(=O)Nc2cccc(C(C)=O)c2)cc(OC)c1OC .
0.00508

Quote Alpha-2C adrenergic receptor (Homo sapiens) slope for entry CC(C)CCSc1nc2c(c(=O)[nH]c(=O)n2C)n1CCCc1ccccc1 .
0.00519

Param request: slope | system Alpha-2C adrenergic receptor (Homo sapiens) | item CCCCn1c(CN2CCN(c3ccc(F)cc3)CC2)nc2c1c(=O)n(C)c(=O)n2C
0.00657

Given C=CCOC(=O)C1=C(C)NC(=O)NC1c1cn(-c2ccccc2)nc1-c1cccs1 (stereo not given) , report its slope on Alpha-2C adrenergic receptor (Homo sapiens).
0.00533

Give measured slope for Cn1c(=O)cc(OCC(=O)NCCCN2CCN(Cc3ccccc3)CC2)c2ccccc21 (Alpha-2C adrenergic receptor (Homo sapiens)).
0.00749

Lab note: Alpha-2C adrenergic receptor (Homo sapiens) assay, enter slope for O=C(CC1Oc2ccccc2NC1=O)NCCCN1CCOCC1 (stereo not given) here
0.00542

Lab note: record slope of COc1ccc(S(=O)(=O)NCCSCc2ccco2)cc1Cl tested on Alpha-2C adrenergic receptor (Homo sapiens).
0.00484

Fill in: slope on Alpha-2C adrenergic receptor (Homo sapiens), entry O=C(NCc1ccc2c(c1)OCO2)C1CCC(CNc2c(N3CCCCC3)c(=O)c2=O)CC1 (stereo not given)
0.00656

Give the observed slope of CC12CCC(C(=O)O)(c3nc(C#N)c(C#N)nc31)C2(C)C (stereo not given) for Alpha-2C adrenergic receptor (Homo sapiens).
0.0041

State, for Alpha-2C adrenergic receptor (Homo sapiens), measured slope of the compound listed here: CC1Oc2ccccc2N(Cc2ccccc2Cl)C1=O (stereo not given)
0.00421

Write down measured slope (Alpha-2C adrenergic receptor (Homo sapiens)) for this compound. Cn1cnc2c(N3CCCCC3)nccc21
0.00681

* * *

Procedure details: endothelial E-selectin expression blockers – imaging, HUVEC, immunofluorescence, MLSMR starter and 10KST1 sets, primary screen (AID 487);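 further: 100% = median nuclei count of all wells on the same plate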
Setup conditions: HUVEC TNFalpha-induced E-selectin immunofluorescence imaging, at 2 µM; measured here: cell number, toxicity
Recorded metric: nuclei count
Please append the unit to your numeric answer.

Solved cases (8 shown):
molecule=COc1ccccc1NC(=O)CSc1nnc(Cn2nnc(-c3ccccc3)n2)n1-c1ccccc1 recorded_metric="nuclei count" observed=119%
molecule=Cc1ccc(C)c2[nH]c(=O)c(CCNC(=O)c3ccc(S(=O)(=O)N(C)C)cc3)cc12 recorded_metric="nuclei count" observed=116%
molecule=CN(C(=O)c1ccc(S(=O)(=O)NC2CCCC2)cc1)C1CCCCC1 recorded_metric="nuclei count" observed=117%
molecule=O=C(CCCCC(=O)NCc1cccs1)NCc1cccs1 recorded_metric="nuclei count" observed=88.9%
molecule=CC(=O)N1CCc2cc(S(=O)(=O)NCCC3=CCCCC3)ccc21 recorded_metric="nuclei count" observed=141%
molecule=CCCC(CCC)n1[nH]c(=O)c2c(C)cc(C)nc21 recorded_metric="nuclei count" observed=114%
molecule=CCOC(=O)c1nnc2ccnn2c1N recorded_metric="nuclei count" observed=111%
molecule=O=c1c2[nH]c3cccc(Cl)c3c2ncn1CCN1CCCCC1 recorded_metric="nuclei count" observed=106%

Using the record for CCOC(=O)c1c(C)oc2ccc(NS(=O)(=O)c3ccc4c5c(cccc35)C(=O)N4)cc12 , state its measured nuclei count.
114%

Read off the recorded nuclei count for CCn1c(C(=O)OC)cc2c1ccn2-c1ccc(F)cc1
105%

Fill in nuclei count for record CCOC(=O)N1CCC(N2C(=O)c3ccccc3C2Nc2cccnc2)CC1 (stereo not given)
117%

Supply recorded nuclei count for COc1ccc(C2CC(c3ccc(Cl)cc3)Nc3nc(NC(=O)c4ccco4)nn32)cc1 (stereo not given) here.
91.8%

Supply recorded nuclei count for Cc1nnc2sc(-c3cccc(NC(=O)c4cccnc4)c3)nn12 here.
108%

Could you please provide reported nuclei count for CCN1CCN(c2nc3c(c(=O)n(C)c(=O)n3C)n2Cc2cccc3ccccc23)CC1 ? Thanks!
80.6%

* * *

inhibition: recorded values
Procedure details: TLR3 IRF3 reporter activation blockers – cell-based, poly I:C stimulus, luciferase, 10K MLSCN set, primary screen (AID 602277)
Setup conditions: HEK293-TLR3 RL24 IRF3 luciferase reporter, at 10 µM, stronger effect = higher value
Only the number, expressed in %, is required.

compound=O=C(CSc1nc(O)cc(=O)n1-c1ccccc1)N1CCCCC1 observed=21

Next:
Supply recorded inhibition for Cc1cc2ncn(S(=O)(=O)c3ccc(S(=O)(=O)N4CCOCC4)cc3)c2cc1C here.
3.91

* * *

Tested target: Voltage-gated potassium channel subunit beta-2 (Rattus norvegicus)
Procedure details: enhancers of rat Kvbeta2 NADPH turnover – biochemical, NADPH fluorescence, primary screen (AID 623);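 further: fluorescence intensity change per second fitted from 20 to 320 s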
Setup conditions: Recombinant KvBeta, NADPH fluorescence decrease slope, 10 min; at 10 µM; stronger effect = lower value
Calls of active or inactive are those of the source.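 How the source made its calls: active means NADPH fluorescence slope more negative than the mean of all samples by about 3 SD, 99.7% confidence; inactive means the rest.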
Items are presented alongside their recorded NADPH fluorescence slope.

Some solved entries appear below for comparison.
compound="Cc1ccc2c(c1C)NC(C(=O)O)C1CC=CC21 (configuration not stated)" tested_target="Voltage-gated potassium channel subunit beta-2 (Rattus norvegicus)" observed="-2.5e-05 (inactive)"
compound=Cc1ccc2nc(/C(C#N)=N/O)[nH]c2c1 tested_target="Voltage-gated potassium channel subunit beta-2 (Rattus norvegicus)" observed="-8.1e-05 (inactive)"
compound="CC(C)=CCC(C)(C)C1OCCN1C(=O)c1ccccc1 (configuration not stated)" tested_target="Voltage-gated potassium channel subunit beta-2 (Rattus norvegicus)" observed="2e-05 (inactive)"
compound=CC(=O)Nc1ccccc1OCC(=O)c1cc(C)n(Cc2cccs2)c1C tested_target="Voltage-gated potassium channel subunit beta-2 (Rattus norvegicus)" observed="-4.2e-05 (inactive)"
compound=Cc1nnc2sc(-c3cccc(NC(=O)c4cccnc4)c3)nn12 tested_target="Voltage-gated potassium channel subunit beta-2 (Rattus norvegicus)" observed="1.1e-05 (inactive)"
compound=CC12CCC(C(=O)N3CCN(C(=O)C45CCC(C)(C(=O)O4)C5(C)C)CC3)(OC1=O)C2(C)C tested_target="Voltage-gated potassium channel subunit beta-2 (Rattus norvegicus)" observed="-7.7e-05 (inactive)"
compound=CN(C)c1cccc(C(=O)OCC(=O)NCc2ccco2)c1 tested_target="Voltage-gated potassium channel subunit beta-2 (Rattus norvegicus)" observed="3e-05 (inactive)"
compound="CCOC(=O)C1C(=O)NC(SCC(=O)Nc2nccs2)=C(C#N)C1c1ccccc1OCC (configuration not stated)" tested_target="Voltage-gated potassium channel subunit beta-2 (Rattus norvegicus)" observed="-3.1e-05 (inactive)"
compound=O=c1c2ccccc2nc(SCc2nc(-c3ccccc3)no2)n1-c1ccc(F)cc1 tested_target="Voltage-gated potassium channel subunit beta-2 (Rattus norvegicus)" observed="-3.3e-05 (inactive)"
compound=COc1ccc(C)cc1S(=O)(=O)N(C)CC(=O)Nc1ccc2c(c1)OCO2 tested_target="Voltage-gated potassium channel subunit beta-2 (Rattus norvegicus)" observed="-5e-05 (inactive)"

Report NADPH fluorescence slope, nothing else, for this compound: O=C(CN1CCC(n2nnc3ccccc32)CC1)Nc1ccc2c(c1)CCC2
-4.8e-05 (inactive)

Consider the compound Cc1ccc(NC(=O)c2ccco2)c(NC(=O)CN2C(=O)c3ccccc3C2=O)c1 and give its recorded NADPH fluorescence slope.
-1.3e-05 (inactive)

Give the reported value of NADPH fluorescence slope for this record: Cc1ccc2c(c1)NC(=O)C(CC(=O)NCCCN1CCN(c3cc(Cl)ccc3C)CC1)O2 (configuration not stated)
3.4e-05 (inactive)

Specify reported NADPH fluorescence slope for the compound shown: Cc1cc(C)n2nc(S(=O)(=O)N(C)Cc3ccccc3)nc2n1
-3.3e-05 (inactive)

Determine from records and report NADPH fluorescence slope for COc1ccc(CCN(Cc2cc3cccc(C)c3[nH]c2=O)C(=O)N2CCCC2)cc1OC
-8.2e-05 (inactive)

Respond only with NADPH fluorescence slope recorded for CCCCN1CN(S(=O)(=O)c2cccs2)c2nc3ccccc3nc21
-5.6e-05 (inactive)

Return NADPH fluorescence slope (reported value) for this compound: CCOc1cc(C2NC(=O)N(C)C(C)=C2C(=O)OC)cc(Br)c1O (configuration not stated)
-4.2e-05 (inactive)

Data origin: PubChem BioAssay
